- Test system: SF-295 CNS
- Experimental details: NCI tumour cell line growth inhibition, 48 h
Metric name: TGI (µM)
Lab book: enter the figure in µM, no units written.

In [3]: df
Out[3]:
                                   compound  experimental_value
0  C=CC(=O)Nc1cc2c(Nc3ccc(F)c(Cl)c3)ncnc2cc1C#CC(C)(C)N1CCN(C)CC1                6.62

Now turn to the next compound.
I am curious: what TGI value has been reported for O=C1CSC(c2ccccc2O)N1c1ccc(-n2c(-c3ccccc3)nc3ccccc3c2=O)cc1 (stereo not given) ? 50.5
